Hi there, I'd appreciate the recorded AUC(0-inf) for every entry that follows.
assay: Pharmacokinetics of JHG components in pulmonary fibrosis (PF) model rats after intragastric administration of JHGs (plasma, Orbitrap Fusion MS); type: in vivo, Sprague Dawley (SD) rats; settings: male, Sprague-Dawley, rat, plasma, po, 22.81 g/kg/day; PF model rats, JHGs high dose 22.81 g/kg/d
The response must be a number in ng·h/mL with no trailing unit.

Incoming: Recorded AUC(0-inf) of COc1ccc(-c2cc(=O)c3c(OC)c(OC)c(OC)c(OC)c3o2)cc1OC , please.
Outgoing: 18

Incoming: Another: CC1=C2CC3C(CC(=O)C4CC(O)CCC43C)C2CCC12OC1CC(C)CNC1C2C (stereo not drawn)
Outgoing: 33.1

Incoming: Another: COc1ccc(C(C)=O)c(O)c1
Outgoing: 83.4

---

test: Pharmacokinetics of JHG components in control rats after intragastric administration of JHGs (plasma, Orbitrap Fusion MS); type: in vivo, Sprague Dawley (SD) rats; conditions: JHGs medium dose 11.41 g/kg/d
Use 600 L as the dividing line for Vss, with the line itself on the Met side and lower values as Not met.

Incoming: Can C[C@@H]1O[C@@H](O[C@@H]2[C@@H](O)[C@H](OCCc3ccc(O)c(O)c3)O[C@H](COC(=O)/C=C/c3ccc(O)c(O)c3)[C@H]2O)[C@H](O)[C@H](O)[C@H]1O [Isoacteoside] be said to have Vss at or above 600 L?
Outgoing: Not met

Incoming: Another: COc1ccc(-c2cc(=O)c3c(OC)c(OC)c(OC)c(OC)c3o2)cc1OC
Outgoing: Met

Incoming: Another: COc1cc(O)c2c(c1)oc(=O)c1c3cc(O)c(O)cc3oc21
Outgoing: Not met

Incoming: Another: O=c1cc(-c2ccc(O)c(O)c2)oc2cc(O[C@@H]3O[C@H](CO)[C@@H](O)[C@H](O)[C@H]3O)cc(O)c12 [Cynaroside]
Outgoing: Not met

Incoming: Another: COc1ccc(C(C)=O)c(O)c1
Outgoing: Met

---

experiment: Pharmacokinetics of JHG components in pulmonary fibrosis (PF) model rats after intragastric administration of JHGs (plasma, Orbitrap Fusion MS); assay type: in vivo, Sprague Dawley (SD) rats; details: male, Sprague Dawley, rat, plasma, po, 5.7 g/kg/day; PF model rats, intragastric JHGs, low dose 5.70 g/kg/d, n=6 (1st of 3 stacked values)
Hi there, I'd appreciate the recorded Cmax for every entry that follows.
State the result as a value with its unit after it.

Incoming: Recorded Cmax of COc1ccc(-c2cc(=O)c3c(OC)c(OC)c(OC)c(OC)c3o2)cc1OC , please.
Outgoing: 2.97 ng/mL

Incoming: Another: CC1=C2CC3C(CC(=O)C4CC(O)CCC43C)C2CCC12OC1CC(C)CNC1C2C (stereo not drawn)
Outgoing: 2.05 ng/mL

Incoming: Another: COc1ccc(C(C)=O)c(O)c1
Outgoing: 2.79 ng/mL

---

Hi there, I'd appreciate the recorded half-life for every entry that follows.
test: Pharmacokinetics of JHG components in control rats after intragastric administration of JHGs (plasma, Orbitrap Fusion MS); assay type: in vivo, Sprague Dawley (SD) rats; conditions: male, Sprague Dawley, rat, plasma, po, 22.81 g/kg/day, JHGs high dose 22.81 g/kg/d
The response must be a number in h with no trailing unit.

Incoming: Recorded half-life of CC1=C2CC3C(CC(=O)C4CC(O)CCC43C)C2CCC12OC1CC(C)CNC1C2C (centres unmarked) , please.
Outgoing: 11.4

Incoming: Another: O=c1cc(-c2ccc(O)cc2)oc2cc(OC3OC(CO)C(O)C(O)C3O)cc(O)c12 (centres unmarked) [Apigenin-7-glucoside]
Outgoing: 9.62

Incoming: Another: CC1CCC2N(C1)CC1C3CC4C(CC(O)C5CC(O)CCC54C)C3CCC1C2(C)O (centres unmarked)
Outgoing: 7.23

Incoming: Another: COc1cc(O)c2c(c1)oc(=O)c1c3cc(O)c(O)cc3oc21
Outgoing: 8.2

Incoming: Another: COc1ccc(C(C)=O)c(O)c1
Outgoing: 9.02

Incoming: Another: O=c1cc(-c2ccc(O)c(O)c2)oc2cc(O[C@@H]3O[C@H](CO)[C@@H](O)[C@H](O)[C@H]3O)cc(O)c12 [Cynaroside]
Outgoing: 5.1

Incoming: Another: C[C@@H]1O[C@@H](O[C@@H]2[C@@H](O)[C@H](OCCc3ccc(O)c(O)c3)O[C@H](COC(=O)/C=C/c3ccc(O)c(O)c3)[C@H]2O)[C@H](O)[C@H](O)[C@H]1O [Isoacteoside]
Outgoing: 6.1

Incoming: Another: CC1CCC2N(C1)CC1C3CC4C(CC(=O)C5CC(O)CCC54C)C3CCC1C2(C)O (centres unmarked)
Outgoing: 6.82
